molecular target: human ether-à-go-go-related gene (hERG) potassium channel (human, UniProt Q12809); assay: primary screen, population patch clamp on CHO cells stably expressing hERG; higher = less effect of the substance;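 further: peak tail current of the secondary pulse compared with the same well before compound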
Sequence (Q12809 whole entry, looked up): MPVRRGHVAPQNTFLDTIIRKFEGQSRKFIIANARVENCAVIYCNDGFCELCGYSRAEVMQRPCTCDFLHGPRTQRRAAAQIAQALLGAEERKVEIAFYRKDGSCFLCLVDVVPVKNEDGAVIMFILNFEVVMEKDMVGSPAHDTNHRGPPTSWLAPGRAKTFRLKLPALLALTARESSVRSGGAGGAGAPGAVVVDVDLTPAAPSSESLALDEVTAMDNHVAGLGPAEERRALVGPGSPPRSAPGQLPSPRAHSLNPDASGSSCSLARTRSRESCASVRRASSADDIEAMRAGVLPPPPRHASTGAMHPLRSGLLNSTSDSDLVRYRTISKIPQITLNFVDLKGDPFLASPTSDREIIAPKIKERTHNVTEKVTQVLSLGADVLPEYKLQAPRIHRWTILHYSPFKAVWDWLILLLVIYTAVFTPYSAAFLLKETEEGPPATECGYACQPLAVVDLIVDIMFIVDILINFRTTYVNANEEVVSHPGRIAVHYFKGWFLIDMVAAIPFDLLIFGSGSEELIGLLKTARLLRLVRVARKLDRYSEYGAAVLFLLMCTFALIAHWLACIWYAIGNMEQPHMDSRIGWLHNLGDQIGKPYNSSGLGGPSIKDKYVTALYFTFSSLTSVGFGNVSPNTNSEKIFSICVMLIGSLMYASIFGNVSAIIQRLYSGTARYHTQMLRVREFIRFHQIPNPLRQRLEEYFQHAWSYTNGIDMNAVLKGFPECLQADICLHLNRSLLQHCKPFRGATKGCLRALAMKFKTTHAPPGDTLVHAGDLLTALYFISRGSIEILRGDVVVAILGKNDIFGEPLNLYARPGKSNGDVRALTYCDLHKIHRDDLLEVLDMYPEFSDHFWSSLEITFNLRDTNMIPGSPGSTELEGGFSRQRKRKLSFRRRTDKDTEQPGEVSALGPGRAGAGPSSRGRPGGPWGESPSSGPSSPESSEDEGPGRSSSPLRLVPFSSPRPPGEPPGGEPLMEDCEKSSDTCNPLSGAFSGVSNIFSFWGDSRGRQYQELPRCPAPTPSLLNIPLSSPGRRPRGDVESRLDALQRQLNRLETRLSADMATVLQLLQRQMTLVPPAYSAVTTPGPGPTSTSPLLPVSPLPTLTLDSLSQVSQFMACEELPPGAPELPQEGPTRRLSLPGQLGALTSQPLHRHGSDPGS
Hit rate of the full screen: of about 310,000 compounds, about 14,000 (4.5%) showed an effect of 50% or more. The effect is printed as a negative number. The list comes from a sample in which strong results are over-represented; it also holds close analogues and randomly drawn compounds.
Property Measured: hERG current change (%, negative = inhibition) at 10uM (%)
Hi! Could you send only the number? It should be in %, unit omitted.

O=C1N=C(N2CCCC2)S/C1=C\c1cn[nH]c1-c1ccccc1	-4.48

Quick note, hERG current change (%, negative = inhibition) at 10uM for CCC(=O)Nc1ccc(S(=O)(=O)c2ccc(NC(=O)CC)cc2)cc1 landed at 0.428

Quick note, hERG current change (%, negative = inhibition) at 10uM for C/C(CC(=O)Nc1cc(C)ccn1)=N\NC(=O)C(=O)NC(C)C landed at 12.5

Quick note, hERG current change (%, negative = inhibition) at 10uM for Oc1nc(-c2ccc(Br)cc2)n2ccncc12 landed at -8.14

Quick note, hERG current change (%, negative = inhibition) at 10uM for Cc1cc(NC(=O)c2c([N+](=O)[O-])cnn2C)no1 landed at 14.2

Quick note, hERG current change (%, negative = inhibition) at 10uM for O=C(NCCc1ccccc1)C(=O)Nc1ccc([N+](=O)[O-])cc1 landed at -2.37

----------
target: human ether-à-go-go-related gene (hERG) potassium channel (human, UniProt Q12809); assay: primary screen, population patch clamp on CHO cells stably expressing hERG; higher = less effect of the substance;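 further: peak tail current of the secondary pulse compared with the same well before compound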
Screen size: about 310,000 compounds; about 14,000 (4.5%) showed an effect of 50% or more. The effect is printed as a negative number. Many of the other results were omitted from the sample, so strong results are more common in it than they were.
So basically: hERG current change (%, negative = inhibition) at 10uM at -20% or higher? That is 1.0. Lower than -20%? That is 0.0.

Query block: API: above_or_equal(metric=hERG current change (%, negative = inhibition) at 10uM, cutoff=-20%) for item COc1ccc(OCCn2c(=N)n(CCO)c3ccccc32)cc1.Cl
Result block: 0.0

Query block: API: above_or_equal(metric=hERG current change (%, negative = inhibition) at 10uM, cutoff=-20%) for item CC(NCC(O)COCc1ccc(Cl)cc1)c1ccccc1.Cl (stereo not drawn)
Result block: 0.0

Query block: API: above_or_equal(metric=hERG current change (%, negative = inhibition) at 10uM, cutoff=-20%) for item CNC(=S)N/N=C/c1cn(CCOc2cccc(OC)c2)c2ccccc12
Result block: 1.0

Query block: API: above_or_equal(metric=hERG current change (%, negative = inhibition) at 10uM, cutoff=-20%) for item Cc1ccc(C)c(N2CCN(C(=O)c3ccc(CS(=O)Cc4cccc(Cl)c4)o3)CC2)c1 (stereo not drawn)
Result block: 1.0

Query block: API: above_or_equal(metric=hERG current change (%, negative = inhibition) at 10uM, cutoff=-20%) for item CCCc1ccc(OCc2ccc(C(=O)O)o2)c(OC)c1
Result block: 1.0

----------
target: human ether-à-go-go-related gene (hERG) potassium channel (human); assay: primary screen, population patch clamp on CHO cells stably expressing hERG; higher = less effect of the substance;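 further: peak tail current of the secondary pulse compared with the same well before compound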
In all, about 310,000 compounds went through this assay and about 14,000 (4.5%) showed an effect of 50% or more. Effects have a minus sign here. This is one part of a sample in which strong results are shown more often than they occur.
Property Measured: hERG current change (%, negative = inhibition) at 10uM (%)
Hi! Could you send only the number? It should be in %, unit omitted.

CCn1cc(C(=O)NCC2CCCO2)c2cc(OC)c(OC)cc2c1=O (stereo not drawn)	19.4
COCCCNC(=O)CSc1nc2ccccc2c(=O)n1CCCC(=O)NCC1CCCO1 (stereo not drawn)	-0.988
Cc1cc(C)c2c(CN3CCN(C/C=C/c4ccccc4)CC3)cc(=O)oc2c1	-76.9

Readout hERG current change (%, negative = inhibition) at 10uM for Cc1ccccc1C(=O)NC1CCN(CC(=O)Nc2ccc3c(c2)OCO3)CC1 , test system human ether-à-go-go-related gene (hERG) potassium channel (human), was -47.3

Readout hERG current change (%, negative = inhibition) at 10uM for COc1ccc(C(=O)/C=C/Nc2ccc(S(=O)(=O)Nc3cc(OC)nc(OC)n3)cc2)c(OC)c1 , test system human ether-à-go-go-related gene (hERG) potassium channel (human), was 19.4

Readout hERG current change (%, negative = inhibition) at 10uM for Cc1ccc(C(=O)C2CCN(CC(=O)Nc3ccc4c(c3)OCCO4)CC2)cc1 , test system human ether-à-go-go-related gene (hERG) potassium channel (human), was -2.3

Readout hERG current change (%, negative = inhibition) at 10uM for O=C(COc1ccc2c3c(c(=O)oc2c1)CCC3)N1CCN(c2ccccc2)CC1 , test system human ether-à-go-go-related gene (hERG) potassium channel (human), was -12.6

Readout hERG current change (%, negative = inhibition) at 10uM for CCC1CCCCN1C(=O)CSc1nnc(CNC(=O)COc2ccc(Cl)cc2)o1 (stereo not drawn) , test system human ether-à-go-go-related gene (hERG) potassium channel (human), was -32.5

Readout hERG current change (%, negative = inhibition) at 10uM for O=C(CCN1CCCC1)Nc1cccc(Br)c1 , test system human ether-à-go-go-related gene (hERG) potassium channel (human), was -20.6
